- method-notes: Solubility in water/DMSO at 60° C.
- Type: physicochemical
- assay-conditions: water/DMSO, 60 °C, organic solvent or mixture, thermodynamic from solid, Water/DMSO at 60° C., 0 % water by volume
readout-type: solubility at 24 h (mg/mL)

compound | readout-type | test-value
Cc1[nH]ncc1-c1cc2nc([C@@H]3CC4CCN3CC4)[nH]c(=O)c2s1 [Compound 1 Crystalline Form I, hemihydrate] | solubility at 24 h | 134

----------
- method-notes: Solubility in water/DMSO at 60° C.
- Format: physicochemical
- assay-conditions: water/DMSO, 60 °C, organic solvent or mixture, thermodynamic from solid, Water/DMSO at 60° C., 3 % water by volume
readout-type: solubility at 24 h (mg/mL)

compound | test-value
Cc1[nH]ncc1-c1cc2nc([C@@H]3CC4CCN3CC4)[nH]c(=O)c2s1 [Compound 1 Crystalline Form I, hemihydrate] | 108
